Below, each of the molecules is paired with its reported log10(AUC(0-t)) value.
Assay: AUCt in CD-1 mouse at 30 mg/kg, po
Assay type: ADME, organism-based
Parameters: dose 30 mg/kg, route oral
Conditions: plasma
Form field - Quantity: AUC(0-t); Unit: µM·h; Scale: log10

Before answering, review these 3 worked examples.
[
  {
    "STRUCTURE": "CC1(C)OC(=O)N([C@H]2CC[C@H](n3c(=O)[nH]c4cc(C#N)ccc43)CC2)[C@H]1c1ccccc1",
    "RECORDED_MEASUREMENT": 1.53
  },
  {
    "STRUCTURE": "CC1(C)OC(=O)N([C@H]2CC[C@H](NC(=O)c3ccnc4cccnc34)CC2)[C@H]1c1ccccc1",
    "RECORDED_MEASUREMENT": -0.59
  },
  {
    "STRUCTURE": "CC1(C)OC(=O)N([C@H]2CC[C@H](C(=O)Nc3cccc4cccnc34)CC2)[C@H]1c1ccccc1",
    "RECORDED_MEASUREMENT": -0.89
  }
]

Continue with the next molecule.
Input: Specify log10(AUC(0-t)) for CC1(C)OC(=O)N([C@H]2CC[C@H](NC(=O)c3ccnc4cc(F)cnc34)CC2)[C@H]1c1ccccc1 and stop.
Output: 0.35

* * *

Assay: Plasma protein binding in rat
Assay type: ADME, cell-free
Details: read-out: PPB (converted)
READOUT_TYPE: fraction unbound
Just the number, please, no unit after it.

[
  {
    "STRUCTURE": "CC1(C)OC(=O)N([C@H]2CC[C@H](NC(=O)c3cccc4cccnc34)CC2)[C@H]1c1ccccc1",
    "fraction unbound": 0.027
  }
]

Input: Specify fraction unbound for CC1(C)OC(=O)N([C@H]2CC[C@H](NC(=O)c3ccnc4cccnc34)CC2)[C@H]1c1ccccc1 and stop.
Output: 0.084

* * *

Assay: Intrinsic clearance in rat liver microsomes
Format: ADME, Microsome
Details: read-out: CLH
Below, each of the molecules is paired with its reported microsomal CLint value.
Output spec: scalar in µL/min/mg, unitless text.

Before answering, review these 2 worked examples.
[
  {
    "STRUCTURE": "CC1(C)OC(=O)N([C@H]2CC[C@H](n3c(=O)[nH]c4ccncc43)CC2)[C@H]1c1ccccc1",
    "microsomal CLint / µL/min/mg": 35
  },
  {
    "STRUCTURE": "CC1(C)CCC(=O)N1c1ccc(C(=O)Nc2cccc3cccnc23)cc1",
    "microsomal CLint / µL/min/mg": 31
  }
]

Continue with the next molecule.
Input: Specify microsomal CLint for CC1(C)OC(=O)N([C@H]2CC[C@H](n3c(=O)[nH]c4c(C#N)cccc43)CC2)[C@H]1c1ccccc1 and stop.
Output: 47

* * *

Test: Intrinsic clearance in human liver microsomes
Assay type: ADME, Microsome
Settings: read-out: CLH
READOUT_TYPE: log10 of microsomal CLint (log10 of the value in µL/min/mg)
Form field - Quantity: microsomal CLint; Unit: µL/min/mg; Scale: log10

Before answering, review these 6 worked examples.
[
  {
    "COMPOUND": "O=C(Nc1cccc2cccnc12)c1ccc(N2C(=O)CCC2c2ccc(F)cc2)cc1 (racemic)",
    "log10 of microsomal CLint": 1.90
  },
  {
    "COMPOUND": "O=C(Nc1cccc2cccnc12)c1ccc(N2C(=O)CC[C@H]2c2ccccc2)cc1",
    "log10 of microsomal CLint": 2.41
  },
  {
    "COMPOUND": "O=C(Nc1cccc2cccnc12)c1ccc(N2C(=O)OC[C@@H]2c2ccccc2)cc1",
    "log10 of microsomal CLint": 2.02
  },
  {
    "COMPOUND": "O=C(Nc1cccc2cccnc12)c1ccc(N2C(=O)[C@@H]3[C@H](C2=O)[C@@H]2C=C[C@H]3C2)cc1",
    "log10 of microsomal CLint": 1.61
  },
  {
    "COMPOUND": "CC1CCC(=O)N1c1ccc(C(=O)Nc2cccc3cccnc23)cc1 (racemic)",
    "log10 of microsomal CLint": 1.20
  },
  {
    "COMPOUND": "O=C(Nc1cccc2cccnc12)c1ccc(N2C[C@H]3[C@@H](C2=O)[C@H]2C=C[C@@H]3C2)cc1 (racemic)",
    "log10 of microsomal CLint": 2.20
  }
]

Continue with the next compound.
Input: Specify log10 of microsomal CLint for O=C(Nc1cccc2cccnc12)c1ccc(N2C(=O)CCC2c2ccccc2F)cc1 (racemic) and stop.
Output: 2.02

* * *

Tested on: MDR1 (human)
Assay: Apparent permeability of the compound across pig LLC-PK1 cells expressing human MDR1
Format: ADME, cell-based, Sus scrofa
READOUT_TYPE: Papp

Before answering, review these 3 worked examples.
[
  {
    "STRUCTURE": "CC1(C)OC(=O)N(c2ccc(C(=O)Nc3cccc4cccnc34)cc2)[C@H]1c1ccccc1",
    "Papp": "8.1 ×10⁻⁶ cm/s"
  },
  {
    "STRUCTURE": "CC1(C)OC(=O)N([C@H]2CC[C@H](NC(=O)c3cccc4cccnc34)CC2)[C@H]1c1ccccc1",
    "Papp": "13.4 ×10⁻⁶ cm/s"
  },
  {
    "STRUCTURE": "CC1(C)OC(=O)N(c2ccc(C(=O)Nc3ccnc4cccnc34)cc2)[C@H]1c1ccccc1",
    "Papp": "17.1 ×10⁻⁶ cm/s"
  }
]

Input: Report Papp from MDR1 (human) testing of CC1(C)OC(=O)N([C@H]2CC[C@H](C(=O)Nc3cccc4cccnc34)CC2)[C@H]1c1ccccc1
Output: 22.1 ×10⁻⁶ cm/s

* * *

Below, each of the compounds is paired with its reported microsomal CLint value.
Assay: Intrinsic clearance in human liver microsomes
Assay type: ADME, Microsome
Conditions: read-out: CLH
Output spec: scalar in µL/min/mg, unitless text.

Before answering, review these 5 worked examples.
[
  {
    "COMPOUND": "CC1(C)OC(=O)N(c2ccc(C(=O)Nc3ccnc4cccnc34)cc2)[C@H]1c1ccccc1",
    "UNIT_DESCRIPTOR": "µL/min/mg",
    "microsomal CLint": 55
  },
  {
    "COMPOUND": "O=C(Nc1cccc2cccnc12)c1ccc(N2C(=O)CCC2c2cccc(F)c2)cc1 (racemic)",
    "UNIT_DESCRIPTOR": "µL/min/mg",
    "microsomal CLint": 137
  },
  {
    "COMPOUND": "O=C(Nc1cccc2cccnc12)c1ccc(N2Cc3ccccc3C2=O)cc1",
    "UNIT_DESCRIPTOR": "µL/min/mg",
    "microsomal CLint": 124
  },
  {
    "COMPOUND": "CC1(C)OC(=O)N([C@H]2CC[C@H](n3c(=O)[nH]c4cccnc43)CC2)[C@H]1c1ccccc1",
    "UNIT_DESCRIPTOR": "µL/min/mg",
    "microsomal CLint": 14
  },
  {
    "COMPOUND": "O=C(Nc1cccc2cccnc12)c1ccc(N2C(=O)CC[C@@H]2c2ccccc2)cc1",
    "UNIT_DESCRIPTOR": "µL/min/mg",
    "microsomal CLint": 114
  }
]

Continue with the next compound.
Input: Specify microsomal CLint for O=C(Nc1cccc2cccnc12)c1ccc(N2CC(c3ccccc3)CC2=O)cc1 (racemic) and stop.
Output: 224

* * *

Test: Intrinsic clearance in rat liver microsomes
Type: ADME, Microsome
Details: read-out: CLH
# condition met = microsomal CLint below 90 µL/min/mg (exclusive); condition not met = microsomal CLint at/above 90 µL/min/mg

Worked cases, answers included:
[
  {
    "MOLECULE": "CC1(C)OC(=O)N([C@H]2CC[C@H](NC(=O)c3ccnc4cccnc34)CC2)[C@H]1c1ccccc1",
    "ANSWER_LABEL": "condition met"
  },
  {
    "MOLECULE": "O=C(Nc1cccc2cccnc12)c1ccc(N2C(=O)CCC2c2ccc(F)cc2)cc1 (racemic)",
    "ANSWER_LABEL": "condition not met"
  },
  {
    "MOLECULE": "O=C(Nc1cccc2cccnc12)c1ccc(N2C(=O)CCC2c2ccccc2)cc1 (racemic)",
    "ANSWER_LABEL": "condition not met"
  },
  {
    "MOLECULE": "CC1(C)OC(=O)N([C@H]2CC[C@H](C(=O)Nc3cccc4cccnc34)CC2)[C@H]1c1ccccc1",
    "ANSWER_LABEL": "condition not met"
  }
]

From here, focus on the item given below.
Input: Quick check: microsomal CLint of O=C(Nc1cccc2cccnc12)c1ccc(N2CCN(c3ccccc3)C2=O)cc1 under 90 µL/min/mg?
Output: condition not met

* * *

Experiment: Solubility of the compound in simulated intestinal fluid at pH 6.8
Format: physicochemical
READOUT_TYPE: solubility (µg/mL)
Output spec: scalar in µg/mL, unitless text.

Before answering, review these 3 worked examples.
[
  {
    "STRUCTURE": "CC1(C)OC(=O)N([C@H]2CC[C@H](n3c(=O)[nH]c4cc(C#N)c(F)cc43)CC2)[C@H]1c1ccccc1",
    "READOUT_TYPE": "solubility",
    "RECORDED_MEASUREMENT": 11
  },
  {
    "STRUCTURE": "CC1(C)OC(=O)N([C@H]2CC[C@H](NC(=O)c3ccnc4cc(F)cnc34)CC2)[C@H]1c1ccccc1",
    "READOUT_TYPE": "solubility",
    "RECORDED_MEASUREMENT": 156
  },
  {
    "STRUCTURE": "CC1(C)OC(=O)N([C@H]2CC[C@H](NC(=O)c3cccc4cccnc34)CC2)[C@H]1c1ccccc1",
    "READOUT_TYPE": "solubility",
    "RECORDED_MEASUREMENT": 58
  }
]

Input: Specify solubility for CC1(C)OC(=O)N(c2ccc(C(=O)Nc3cccc4cccnc34)cc2)[C@H]1c1ccccc1 and stop.
Output: 10
